Recorded values, source PubChem BioAssay (NCI).

System: SK-OV-3 ovarian
Protocol Summary: NCI tumour cell line growth inhibition, 48 h
The entries below come with measured TGI values attached.

Recorded TGI, per entry:
Compound: CC1CCC2C(C)C(=O)OC2C2(C)C(=O)C=CC12 (stereo not given)
Experimental Readout: TGI
Test Value: > 10 µM
--
Compound: COC1(CC[C@@H](C)COC2OC(CO)C(O)C(O)C2O)OC2C[C@H]3[C@@H]4CC[C@H]5C[C@@H](OC6OC(CO)C(OC7OC(CO)C(O)C(O)C7O)C(O)C6OC6OC(C)C(O)C(O)C6O)[C@H](O)C[C@]5(C)[C@H]4CC[C@]3(C)C2[C@@H]1C (stereo not given in full)
Experimental Readout: TGI
Test Value: 3.28 µM

Task item: Give TGI (SK-OV-3 ovarian) of the following compound: COc1cc(C)c2c(c1)CN1CN2Cc2cc(OC)cc(C)c21
Reply: > 100 µM

Task item: Give TGI (SK-OV-3 ovarian) of the following compound: O=C(Nc1n[nH]c2cc(-c3cc(F)ccc3F)ccc12)C1CC1
Reply: > 25 µM

Task item: Give TGI (SK-OV-3 ovarian) of the following compound: Cc1nnc2n1N=C(c1ccccc1)C(c1ccccc1)S2 (stereo not given)
Reply: 68.2 µM

Task item: Give TGI (SK-OV-3 ovarian) of the following compound: COc1cc2c[n+]3c4c(c2c(OC)c1OC)CCCC4CC3 (stereo not given)
Reply: > 100 µM

Task item: Give TGI (SK-OV-3 ovarian) of the following compound: CN(CCCCCl)P(=O)(OCc1ccc([N+](=O)[O-])o1)OCC1OC(n2ccc(N)nc2=O)C(O)C1O (stereo not given)
Reply: 38.3 µM

Task item: Give TGI (SK-OV-3 ovarian) of the following compound: O=C1/C(=C/c2ccccc2)Oc2cc(O)ccc21
Reply: > 100 µM

Task item: Give TGI (SK-OV-3 ovarian) of the following compound: N#Cc1c(NC(=S)Nc2ccc(Cl)cc2)sc2c1CCN(N1CCc3c(sc(NC(=S)Nc4ccc(Cl)cc4)c3C#N)C1)C2
Reply: > 100 µM

Task item: Give TGI (SK-OV-3 ovarian) of the following compound: Nc1cc2c3c(cccc3c1)C(=O)N(CCN1CCCC1)C2=O
Reply: 22.7 µM

Task item: Give TGI (SK-OV-3 ovarian) of the following compound: CCN1CC2(C)CCC(OC)C34C5CC6CCC(O)(C5C(=O)O6)C(C(O)C23)C14 (stereo not given)
Reply: > 100 µM

Task item: Give TGI (SK-OV-3 ovarian) of the following compound: COC(=O)C1CC(c2ccc(OC)c(OC)c2)OC1=O (mixture of isomers)
Reply: > 100 µM

Task item: Give TGI (SK-OV-3 ovarian) of the following compound: O=c1[nH]c(C2CCCN2)nc2c1oc1ccc(Cl)cc12 (stereo not given)
Reply: > 100 µM

---

The entries below come with measured TGI values attached.
System: IGROV1 ovarian
Protocol Summary: NCI tumour cell line growth inhibition, 48 h

Recorded TGI, per entry:
Compound: COC(=O)C1C=CCC2CCCCC21N1CCCC1 (stereo not given)
Target Or System: IGROV1 ovarian
TGI: > 100 µM
//
Compound: C=C(NC(=O)C(=C)NC(=O)c1ccc2c(n1)-c1coc(n1)C(=C)NC(=O)C(=C)NC(=O)c1nc(oc1C)C(=C)NC(=O)C(C(C)(C)O)NC(=O)C(=C)NC(=O)c1coc(n1)/C(=C/C)NC(=O)[C@H]([C@@H](C)O)NC(=O)c1csc-2n1)C(N)=O (stereo not given in full)
Target Or System: IGROV1 ovarian
TGI: > 87.5 µM
//
Compound: C=C(C)C1CC(=O)C(C)=C(O)C1 (stereo not given)
Target Or System: IGROV1 ovarian
TGI: > 100 µM
//
Compound: Cc1ccccc1NC(=O)O/N=C(\Cl)C(C)C
Target Or System: IGROV1 ovarian
TGI: 27.6 µM
//
Compound: CC1CCC2C(C)C(=O)OC2C2(C)C(=O)C=CC12 (stereo not given)
Target Or System: IGROV1 ovarian
TGI: > 10 µM

Task item: Give TGI (IGROV1 ovarian) of the following compound: COc1ccc(-c2ccc(C3CC(c4ccccc4)=NN3)o2)c([N+](=O)[O-])c1 (stereo not given)
Reply: > 100 µM

Task item: Give TGI (IGROV1 ovarian) of the following compound: O=c1c2cccnc2ncn1CCCN1CCCCC1
Reply: > 100 µM

Task item: Give TGI (IGROV1 ovarian) of the following compound: C[C@H]1S[C@@H](c2ccc(Cl)cc2Cl)N(NC(=O)c2ccncc2)C1=O
Reply: > 100 µM

Task item: Give TGI (IGROV1 ovarian) of the following compound: N#Cc1nc(CCc2nc(C#N)c(N)o2)oc1N
Reply: > 10 µM

Task item: Give TGI (IGROV1 ovarian) of the following compound: N=C1CCCC1C(=S)SCCC(N)=O (stereo not given)
Reply: > 100 µM

---

Test system: EKVX NSCLC
Protocol Summary: NCI tumour cell line growth inhibition, 48 h
Experimental Readout: TGI

Recorded TGI, per entry:
Compound: COc1cccc2c1C(=O)c1c(O)c3c(c(O)c1C2=O)C[C@@](O)(C(C)=O)CC3OC1CC(OC2CC(N)C(O)C(C)O2)C(O)C(C)O1 (stereo partly specified)
Target Or System: EKVX NSCLC
TGI: > 100 µM
--
Compound: COc1ccc(-c2ccc(CC(=O)O)cc2)cc1OC
Target Or System: EKVX NSCLC
TGI: > 100 µM
--
Compound: O=c1c2cc(Br)cc(Br)c2[nH]c(=S)n1-c1ccc(N=Nc2ccc(O)c3cccnc23)cc1
Target Or System: EKVX NSCLC
TGI: > 100 µM
--
Compound: Cc1cccc(C)c1NC(=O)C(=O)Cc1nc2ccccc2s1
Target Or System: EKVX NSCLC
TGI: > 100 µM
--
Compound: O=C1CC23CCCCCCCCCCC2(C1)CC(=O)C3 (stereo unspecified)
Target Or System: EKVX NSCLC
TGI: > 100 µM

Task item: Quick one: TGI for CCOC(=O)c1c(-c2ccc(OC)cc2)ccn1C ?
Reply: > 10 µM

Task item: Quick one: TGI for FC1=C2C3CCC(C3)C2C1(F)F (stereo unspecified) ?
Reply: > 100 µM

Task item: Quick one: TGI for CCCCCCCC(=O)OCC/C=C/C1OC1C1OC(=O)/C=C\C=C\C(=O)N(C(C)=O)C(=O)/C=C(/C)CCC2OC2C1OC(=O)NC(C)=O (stereo unspecified) ?
Reply: > 25 µM

Task item: Quick one: TGI for N#Cc1c(NC(=S)Nc2ccc(Cl)cc2)sc2c1CCN(N1CCc3c(sc(NC(=S)Nc4ccc(Cl)cc4)c3C#N)C1)C2 ?
Reply: > 100 µM

Task item: Quick one: TGI for CCN(CC)C(=S)SC(C(=O)Nc1nnc(-c2ccc(Cl)cc2)o1)c1ccccc1 (stereo unspecified) ?
Reply: 29.4 µM

---

The entries below come with measured TGI values attached.
Tested on: OVCAR-4 ovarian
Protocol Summary: NCI tumour cell line growth inhibition, 48 h

Compound: CC(=O)CC1(CBr)Nc2ccc([N+](=O)[O-])cc2NC1=O (stereo unspecified)
Target Or System: OVCAR-4 ovarian
Test Value: > 100 µM
//
Compound: FC1=C2C3CCC(C3)C2C1(F)F (stereo unspecified)
Target Or System: OVCAR-4 ovarian
Test Value: > 100 µM
//
Compound: Nc1c(C(=O)c2ccc(Cl)c(Cl)c2)[nH]c(NCc2ccccc2)c1C(=S)Nc1ccccc1
Target Or System: OVCAR-4 ovarian
Test Value: 15.8 µM

Task item: Quick one: TGI for O=CCCCCCOCc1ccccc1 ?
Reply: > 100 µM

Task item: Quick one: TGI for O=c1c(Cc2ccc3c(c2)OCO3)nnc2sc(-c3cc(F)c(Cl)cc3Cl)nn12 ?
Reply: > 100 µM

Task item: Quick one: TGI for CC(C)(CO[C@H]1C[C@H]2CC[C@@]1(C)C2(C)C)[N+](=O)[O-] ?
Reply: 76 µM

---

System: UO-31 renal
Protocol Summary: NCI tumour cell line growth inhibition, 48 h
Experimental Readout: GI50

Recorded GI50, per entry:
Compound: COc1ccc2[nH]c(C(=O)N3CCN(C(=O)OCc4ccc5c(Cl)cc(Cl)c(O)c5n4)CC3)cc2c1
GI50: 1.01 µM

Compound: COc1ccc(-c2ccc(C3CC(c4ccccc4)=NN3)o2)c([N+](=O)[O-])c1 (stereo not given)
GI50: > 100 µM

Compound: CC1(C)CC(C)(C)c2cc(NC(=S)Nc3ccc([N+](=O)[O-])cc3)ccc2S1
GI50: 12.4 µM

Compound: O=c1[nH]c(C2CCCN2)nc2c1oc1ccc(Cl)cc12 (stereo not given)
GI50: 26.9 µM

Next, consider the following compound.
Task item: Quick one: GI50 for COc1cc2c(cc1OCCNC(=O)/C=C1\C[C@H]3C=Nc4cc(OCc5ccccc5)c(OC)cc4C(=O)N3C1)N=C[C@@H]1CCCN1C2=O ?
Reply: 22.9 µM
